Assay: PK study on intravenous administration of the pharmaceutical composition containing Utidelone semihydrate crystal
Assay type: in vivo
Conditions: human, in vivo, iv, 40 mg/m2, intravenous infusion 40 mg/m2 once a day for 5 days; 5th day
assay endpoint: MRT

Kindly indicate its recorded MRT. Item: C/C1=C/C[C@@H](/C(C)=C/c2csc(C)n2)OC(=O)C[C@H](O)C(C)(C)C(=O)[C@H](C)[C@@H](O)[C@@H](C)CCC1
5.1 h

----------
Test: PK study on intravenous administration of the pharmaceutical composition containing Utidelone semihydrate crystal
Assay type: in vivo
Conditions: human, in vivo, iv, 40 mg/m2, intravenous infusion 40 mg/m2 once a day for 5 days; 1st day
assay endpoint: MRT
# include the unit after the value

Kindly indicate its recorded MRT. Item: C/C1=C/C[C@@H](/C(C)=C/c2csc(C)n2)OC(=O)C[C@H](O)C(C)(C)C(=O)[C@H](C)[C@@H](O)[C@@H](C)CCC1
4.5 h
